- testDetails: Cytotoxicity against human A549 cells assessed as reduction in cell viability after 48 hrs by MTT assay
- Type: cell-based
Could you please report measured CC50 at 48 h for the items listed next?

Query block: # get_value(readout='CC50 at 48 h', item= OC1O[C@H](COCc2cn(CC(Cn3cc(COC[C@H]4OC(O)[C@H](O)[C@@H](O)[C@H]4O)nn3)(Cn3cc(COC[C@H]4OC(O)[C@H](O)[C@@H](O)[C@H]4O)nn3)Cn3cc(COC[C@H]4OC(O)[C@H](O)[C@@H](O)[C@H]4O)nn3)nn2)[C@H](O)[C@H](O)[C@H]1O (stereo partly drawn) )
Result block: > 1000 µM

Query block: Looking for the measured CC50 at 48 h of CCCCn1cc(COC[C@H]2OC(O)[C@H](O)[C@@H](O)[C@H]2O)nn1 (stereo partly drawn) , can you help?
Result block: > 1000 µM

Query block: Look up CC50 at 48 h: CCCCn1cc(COC[C@@H](O)[C@H](O)[C@H](O)[C@@H](O)CO)nn1
Result block: > 1000 µM

====

- testDetails: in vitro
- experimentalConditions: monkey, Vero cells
For each record, write down the corresponding selectivity ratio.

Query block: # selectivity ratio lookup, item CCCCn1cc(CO[C@@H]2O[C@H](CN=[N+]=[N-])[C@H]3OC(C)(C)O[C@@H]23)nn1
Result block: 57.9

Query block: For the compound shown here, CC(=O)OC[C@H]1O[C@@H](n2cc(CO)nn2)[C@H](OC(C)=O)[C@@H]1OC(C)=O , give the reported selectivity ratio.
Result block: > 7.7

Query block: Look up selectivity ratio for this compound: CCCCn1cc(CO[C@@H]2O[C@H](CO)[C@H]3OC(C)(C)O[C@@H]23)nn1
Result block: > 17.5

Query block: Consider the compound CC1(C)O[C@H]2[C@H](OCc3cn(CC(Cn4cc(CO[C@@H]5O[C@H](CO)[C@H]6OC(C)(C)O[C@@H]56)nn4)(Cn4cc(CO[C@@H]5O[C@H](CO)[C@H]6OC(C)(C)O[C@@H]56)nn4)Cn4cc(CO[C@@H]5O[C@H](CO)[C@H]6OC(C)(C)O[C@@H]56)nn4)nn3)O[C@H](CO)[C@H]2O1 and give its measured selectivity ratio.
Result block: 6.5

====

- Tested on: Junin virus
- Type: functional, organism-based
- experimentalConditions: Mammarenavirus juninense, IV4454, Vero, 48 h
What EC50 was measured for each of the following?
Kindly provide the numeric value in µM only, without the unit symbol.

Query block: Record lookup: for Junin virus, what EC50 belongs to CC1(C)O[C@@H]2[C@H](O1)[C@@H](CO)O[C@H]2n1cc(CO)nn1 ?
Result block: 51.3

Query block: Value wanted: EC50 (Junin virus) of entry CCCCn1cc(CO[C@@H]2O[C@H](Cn3cc(COC[C@@H](O)[C@H](O)[C@H](O)[C@@H](O)CO)nn3)[C@H]3OC(C)(C)O[C@@H]23)nn1
Result block: 209

Query block: EC50 of OC1O[C@H](COCc2cn(CC(Cn3cc(COC[C@H]4OC(O)[C@H](O)[C@@H](O)[C@H]4O)nn3)(Cn3cc(COC[C@H]4OC(O)[C@H](O)[C@@H](O)[C@H]4O)nn3)Cn3cc(COC[C@H]4OC(O)[C@H](O)[C@@H](O)[C@H]4O)nn3)nn2)[C@H](O)[C@H](O)[C@H]1O (stereo partly specified) on Junin virus?
Result block: 371

Query block: Look up EC50 with Junin virus for this molecule: OCc1cn([C@@H]2O[C@H](CO)[C@@H](O)[C@H]2O)nn1
Result block: 215

Query block: For the record CCCCn1cc(CO[C@@H]2O[C@H](CO)[C@H]3OC(C)(C)O[C@@H]23)nn1 , what value of EC50 is listed for Junin virus?
Result block: 57.2

Query block: Request body: readout EC50, system Junin virus, query CC1(C)O[C@H]2[C@H](OCc3cn(CC(Cn4cc(CO[C@@H]5O[C@H](CO)[C@H]6OC(C)(C)O[C@@H]56)nn4)(Cn4cc(CO[C@@H]5O[C@H](CO)[C@H]6OC(C)(C)O[C@@H]56)nn4)Cn4cc(CO[C@@H]5O[C@H](CO)[C@H]6OC(C)(C)O[C@@H]56)nn4)nn3)O[C@H](CO)[C@H]2O1 . Return the value.
Result block: 35.5

Query block: Tell me reported EC50 for CCCCn1cc(COC[C@H]2OC(O)[C@H](O)[C@@H](O)[C@H]2O)nn1 (stereo partly specified) , tested with Junin virus.
Result block: 371

Query block: Give EC50 (Junin virus) of the following molecule: CC(=O)OC[C@H]1O[C@@H](n2cc(CO)nn2)[C@H](OC(C)=O)[C@@H]1OC(C)=O
Result block: 130

Query block: Find EC50 (Junin virus) for the entry CCCCn1cc(CO[C@@H]2O[C@H](CN=[N+]=[N-])[C@H]3OC(C)(C)O[C@@H]23)nn1
Result block: 13.2

Query block: Field: EC50 (Junin virus). Entry: CCCCn1cc(CO[C@@H]2O[C@H](Cn3cc(COC[C@H]4OC(O)[C@H](O)[C@@H](O)[C@H]4O)nn3)[C@H]3OC(C)(C)O[C@@H]23)nn1 (stereo partly specified)
Result block: 22.1

All values here come from ChEMBL document CHEMBL4330122.
